Ref: patent US9796686B2

# Tested on: E. coli ATCC25922
# Assay Protocol: Bacterial growth minimal inhibitory concentration, microdilution in cation-adjusted Mueller-Hinton Broth (CLSI M7-A7)
# Type: cell-based
# Test Parameters: Escherichia coli, ATCC25922; quinolone-sensitive strain; read-out: MIC for E. coli ATCC25922
Recorded Endpoint: MIC

• COc1ccc(-c2ccc3c(=O)n(CC[C@](C)(C(=O)NO)S(C)(=O)=O)cnc3c2)c(F)c1 (single isomer, unassigned) = ≤ 0.063 µg/mL
• C[C@@](CCn1cnc2cc(C#CC#C[C@@H]3C[C@H]3CO)ccc2c1=O)(C(=O)NO)S(C)(=O)=O = ≤ 0.063 µg/mL
• C[C@@]1(CO)C[C@H]1C#CC#Cc1ccc2c(=O)n(CC[C@](C)(C(=O)NO)S(C)(=O)=O)cnc2c1 = ≤ 0.063 µg/mL
